Data credit: patent US4997843A

Tested on: platelet aggregation induced by PAF
Assay: Test 1: inhibition of platelet aggregation induced by PAF in vitro (rabbit platelet rich plasma, Born nephelometric technique)
Format: cell-based, male New Zealand albino rabbits
Details: Oryctolagus cuniculus, Platelet, PAF C18 16 nM final, read-out: IC50 (concentration of the drug needed to inhibit the platelet aggregation in a 50%)
pIC50: −log10 of the molar value.
Collected pIC50 values appear next to each entry.
EXPERIMENTAL_ENDPOINT: pIC50

• CCCCCCCCCCCCCC[C@@H]1CO[C@H](COCCCCCC[n+]2ccsc2)C1 (relative stereo) = 5.59
• CCCCCCCCCCCCCCC1COC(COCCCC[n+]2ccsc2)C1 (racemic) = 4.41
• CCCCCCCCCCCCCCCCCCOCC1CC(COC(=O)N(Cc2cccc[n+]2C)C(C)=O)CO1 (racemic) = 6.85
• CCCCCCCCCCCCCCC1COC(COCCCCCC[n+]2ccccc2)C1 (racemic) = 5.20
• CCCCCCCCCCCCCCCCCCOCC1COC(COC(=O)N(Cc2cccc[n+]2C)C(C)=O)C1 (racemic) = 7.05
• CCCCCCCCCCCCCCCCCCC1COC(COC(=O)N(Cc2cccc[n+]2CC)C(C)=O)C1 (racemic) = 6.70
• CCCCCCCCCCCCCCC1COC(COC(=O)CCCCC[n+]2ccsc2)C1 (racemic) = 4.30
